assayMethodText: MTT cell viability assay, Hep G2 cells (serum-free DMEM)
assayContext: human, Hep G2 cells, Cell viability, lovastatin 10 μM alone, 96 hr, Table 21
measuredQuantity: viability at 96 h, 10 μM (%)
One number for each entry, in %.

-- ask For CC[C@H](C)C(=O)O[C@H]1C[C@@H](C)C=C2C=C[C@H](C)[C@H](CC[C@@H]3C[C@@H](O)CC(=O)O3)[C@H]21 [Lovastatin, lovastatin] , what is its reported viability at 96 h, 10 μM?
-- reply 52.4

----------
assayMethodText: MTT cell viability assay, Hep G2 cells (serum-free DMEM)
assayContext: human, Hep G2 cells, Cell viability, DOX 1 μM, 48 hr
measuredQuantity: viability at 48 hr, 1 μM (%)
Numbers only, in %.

-- ask For `COc1cccc2c1C(=O)c1c(O)c3c(c(O)c1C2=O)C[C@@](O)(C(=O)CO)C[C@@H]3O[C@H]1C[C@H](N)[C@H](O)[C@H](C)O1` , what is its reported viability at 48 hr, 1 μM?
-- reply 29.1
